Assay: Approximate solubility of Form I by stepwise dilution of a suspension
Assay type: physicochemical
Conditions: acetic acid:water 1:1, aqueous with cosolvent or surfactant or cyclodextrin, thermodynamic from solid; read-out: Solubility [S, mg/mL]

{"columns": ["Molecule", "solubility"],
 "data": [
  ["CC#CC(=O)N1CCC[C@H]1c1nc(-c2ccc(C(=O)Nc3ccccn3)cc2)c2c(N)nccn12 [Form I]", "104 to 208 mg/mL"]
]}

====

Assay: Approximate solubility of Form I by stepwise dilution of a suspension
Assay type: physicochemical
Details: acetone:water 4:1, organic solvent or mixture, thermodynamic from solid; read-out: Solubility [S, mg/mL]

{"columns": ["Molecule", "solubility"],
 "data": [
  ["CC#CC(=O)N1CCC[C@H]1c1nc(-c2ccc(C(=O)Nc3ccccn3)cc2)c2c(N)nccn12 [Form I]", "26 to 31 mg/mL"]
]}

From: patent US20220177476A1
